# Test system: BT-549
# Experiment notes: NCI tumour cell line growth inhibition, 48 h
The source made the active and inactive calls. No stated cut-off is given here; in the data, active = GI50 up to about 1.1 µM and inactive = higher.

- Compound: "CN(C)c1ccc(/C=C2\\C[C@H]3[C@@H]4CC=C5C[C@@H](O)CC[C@]5(C)[C@H]4CC[C@]3(C)[C@H]2O)cc1"
  GI50: "21 µM (inactive)"
- Compound: "NNC(=O)c1cc(=O)[nH][nH]1"
  GI50: "> 100 µM (inactive)"
- Compound: "CC[C@]1(Cc2ccc(OC)c(OC)c2)C=[N+]([O-])O[C@H](OC2CCCC2(c2ccccc2)c2ccccc2)[C@@H]1OC(=O)C(C)(C)C (stereo not given in full)"
  GI50: "4.38 µM (inactive)"
- Compound: "CNC(=O)CCCNC(=O)CCCC(=O)N(C)C"
  GI50: "> 100 µM (inactive)"
- Compound: "CC(=O)c1c(O)ccc2c1c1c(n2C)C(=O)c2ccccc2C1=O"
  GI50: "> 100 µM (inactive)"

Values were extracted from ChEMBL document CHEMBL1201862.
